# measurementNotes: growth inhibition, single agents and combos, HTB85, cell-based, BGB or cisplatin IC20 combos, synergistic combos for chromothripsis tumors (AID 1671453);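 also: cells exposed for 96 hours before readout; 0% = vehicle DMSO and 100% = high DMSO killing control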
# statedConditions: HTB85 osteosarcoma cells, drug combinations, measured here: with cisplatin IC20, at 5 µM, stronger effect = higher value
observationType: inhibition (%)
The answer is to be given in %; state only the numeric part.

Reference set, count: 3
COc1ccc(C(=O)C2CCN(CC(=O)N(Cc3nc4c(c(=O)[nH]3)COCC4)CC3CC3)CC2)cc1 : 4.94
CN(C)Cc1c(C(=O)NCCOc2ccc(C(=O)NO)cc2)oc2ccccc12 : 99.9
NC1CCC(N[C@@H]2C[C@H]2c2ccccc2)CC1 (some centres undefined) : 0.769

Kindly consider the entry below.
Please list inhibition recorded for the compound `CS(=O)(=O)c1ccc(-c2nnc(/C=C/c3nnc(-c4ccc(C#N)cc4)o3)n2-c2ccccc2Cl)nc1`
9.69

Origin of the recorded values: PubChem BioAssay
